test system: Staphylococcus aureus MW2 delta-mecA (mecA-); test: IC50 (growth, competition assay); settings: fluorescent label: DsRed; cefoxitin: subinhibitory
Record form. Attribute: pIC50. Fill in for each entry.
One number for each entry, as −log10 of the molar value.

CN(C(=O)CN(CCO)CC(=O)N(C)C(C)(C)Cc1ccccc1)C(C)(C)Cc1ccccc1 ... 4.40
O=C(O[C@@H]1Cc2c(O)cc(O)cc2O[C@@H]1c1ccc(O)c(O)c1)c1cc(O)c(O)c(O)c1 [EPICATECHIN MONOGALLATE] ... 4.64

Consider the record given below.
compound "O=C(/C=C/c1ccc(O)c(O)c1)OCCc1ccccc1" , pIC50 observed: 4.64

----------
system: Staphylococcus aureus MW2 (mecA+); assay: IC50 (growth, competition assay); settings: fluorescent label: DsRed; cefoxitin: subinhibitory
readout: pIC50
Answers are plain numbers, as −log10 of the molar value.

Some molecules with known pIC50 results, for comparison:
CC(=O)N1CCN(c2ccc(OCC3COC(Cn4ccnc4)(c4ccc(Cl)cc4Cl)O3)cc2)CC1 (configuration not stated) ... 3.95
O=c1oc2ccccc2c(O)c1Cc1c(O)c2ccccc2oc1=O ... 4.94

Now look at this entry.
O=C(O)c1cn(C2CC2)c2cc(N3CCNCC3)c(F)cc2c1=O [Ciprofloxacin (Cipro)] has a reported pIC50 of 5.45

----------
tested on: Staphylococcus aureus MW2 delta-mecA (mecA-); experiment: IC50 (growth, competition assay); settings: fluorescent label: DsRed; cefoxitin: subinhibitory
Structures can show the parent of a compound that is named as a salt.
Provide the recorded IC50 for the entries that follow.
Numbers only, in µM.

Example results:
O=c1oc2ccccc2c(O)c1Cc1c(O)c2ccccc2oc1=O ... 14
CCc1cc2c(cc1CC)CC(NC[C@H](O)c1ccc(O)c3[nH]c(=O)ccc13)C2 [Indacaterol Maleate] ... 53.8

Turning now to a further record.
Reported IC50 of Cc1c(-c2ccc(O)cc2)n(Cc2ccc(OCCN3CCCCCC3)cc2)c2ccc(O)cc12 [Bazedoxifene HCl] : 13.5

----------
Provide the recorded IC50 for the entries that follow.
system: Staphylococcus aureus MW2 (mecA+); test: IC50 (growth, competition assay); details: fluorescent label: DsRed; cefoxitin: subinhibitory
Answers are plain numbers, in µM.

Oc1c(I)cc(Cl)c2cccnc12 [VIOFORM] ... 15
CCCCCCCc1ccc(CCc2cccc(O)c2C(=O)O)cc1 ... 13.6
OCc1ccc(-c2ccc(-c3ccc(CO)s3)o2)s1 ... 22.4
Cc1cc(-n2c(=O)[nH]c(=O)n(C)c2=O)ccc1Oc1ccc(SC(F)(F)F)cc1 [BAYCOX] ... 70.8

Please examine the following record next.
// field: IC50; key: CCN(CC)CCOc1ccc(C(=C(Cl)c2ccccc2)c2ccccc2)cc1 [CLOMID] ; value = 23.7

----------
test system: Staphylococcus aureus MW2 delta-mecA (mecA-); experiment: IC50 (growth, competition assay); conditions: fluorescent label: DsRed; cefoxitin: subinhibitory
Counter-ions that a name gives are not always drawn.
readout: pIC50
One number for each entry, as −log10 of the molar value.

Solved entries (count: 3):
COc1ccc(CCN2CCC(Nc3nc4ccccc4n3Cc3ccc(F)cc3)CC2)cc1 [HISMANAL] ... 4.35
C[C@@H](O)[C@H]1C(=O)N2C(C(=O)[O-])=C(SC3Cn4cnc[n+]4C3)[C@H](C)[C@H]12 (stereo partly drawn) [Biapenem] ... 4.50
COC(=O)/C(C)=C\C[C@@]12OC(C)(C)[C@@H]3C[C@@H](C=C4C(=O)c5c(O)c6c(c(CC=C(C)C)c5O[C@]431)O[C@](C)(CCC=C(C)C)C=C6)C2=O [METHYL GAMBOGATE] ... 4.89

Hello, I would appreciate it if you could give pIC50 for each entry below.
1. CN1CCN(CCCN2c3ccccc3Sc3ccc(Cl)cc32)CC1 [COMPAZINE]
2. CC(=O)Oc1ccc(Cl)c2cccnc12 [SILITAL]
3. CSc1ccc2c(c1)C(N1CCN(C)CC1)Cc1ccccc1S2 (stereo not drawn) [METITEPINE MESYLATE]
4. O=[N+]([O-])c1ccc(O)c2ncccc12 [ENTEROCOL]

1: 4.47; 2: 4.81; 3: 4.51; 4: 4.42

Look up pIC50 for the entries below, preserving their order.
1. CN1C[C@H](CNC(=O)OCc2ccccc2)C[C@@H]2c3cccc4c3c(cn4C)C[C@H]21 [METERGOLINE]
2. CNc1nc(-c2ccc3c(N)n[nH]c3c2)cc(N2C[C@@H](C(=O)NC3CCCCC3)CC[C@H]2C)n1
3. COC(=O)C1=C(C)NC(C)=C(C(=O)OCC(C)C)C1c1ccccc1[N+](=O)[O-] (stereo not drawn) [SULAR]

1: 4.77; 2: 4.29; 3: 4.11

----------
Consider the following compounds; for each one, report its pIC50.
test system: Staphylococcus aureus MW2 delta-mecA (mecA-); assay: IC50 (growth, competition assay); conditions: fluorescent label: DsRed; cefoxitin: subinhibitory
pIC50: −log10 of the molar value.

CN(C)[C@@H]1C(O)=C(C(N)=O)C(=O)[C@@]2(O)C(O)=C3C(=O)c4c(O)ccc(Cl)c4[C@@](C)(O)[C@H]3C[C@@H]12 [AUREOMYCIN] ... > 5.01
COc1c(O)cc2oc3cc(O)c(CC=C(C)C)c(O)c3c(=O)c2c1CC=C(C)C [alpha-MANGOSTIN] ... > 5.01
CC(C)(O)CC(=O)NCCn1ccc2ncnc(Nc3ccc(Oc4cccc(C(F)(F)F)c4)c(Cl)c3)c21 [TAK-285] ... > 5.01

Simply: OCCN1CCN(CCCN2c3ccccc3Sc3ccc(Cl)cc32)CC1 [TRILAFON] , Staphylococcus aureus MW2 delta-mecA (mecA-), pIC50 = 4.73

----------
system: Staphylococcus aureus MW2 (mecA+); assay: IC50 (growth, competition assay); conditions: fluorescent label: DsRed; cefoxitin: subinhibitory
pIC50: −log10 of the molar value.
What pIC50 was measured for each of the following?

CC(C)=CCCC1(C)C=Cc2c(O)c3c(c(CC=C(C)C)c2O1)OC12C(=CCCC1C(C)(C)O[C@@]2(C/C=C(\C)C(=O)O)C(=O)O)C3=O (stereo partly specified) [GARCINOLIC ACID] ... > 5.01
C[C@@H]1CN(c2c(F)c(F)c3c(=O)c(C(=O)O)cn(C4CC4)c3c2F)C[C@H](C)N1 [ORBAX] ... > 5.01
CC(C)=CCC[C@]1(C)C=Cc2c(O)c3c(c(CC=C(C)C)c2O1)O[C@]12C(=C[C@@H]4C[C@H]1C(C)(C)O[C@@]2(C/C=C(/C)C(=O)O)C4=O)C3=O [GAMBOGIC ACID] ... > 5.01

List the reported pIC50 of each molecule below.
1. COc1ccc(CCN2CCC(Nc3nc4ccccc4n3Cc3ccc(F)cc3)CC2)cc1 [HISMANAL]
2. CC(=O)/C=C1/C(=O)N(C)c2ccccc21 [Supercinnamaldehyde]

1: 4.10; 2: 4.33

Noted for CO[C@H]1/C=C/O[C@@]2(C)Oc3c(C)c(O)c4c(O)c(c(/C=N/N5CCN(C6CCCC6)CC5)c(O)c4c3C2=O)NC(=O)/C(C)=C\C=C\[C@H](C)[C@H](O)[C@@H](C)[C@@H](O)[C@@H](C)[C@H](OC(C)=O)[C@@H]1C [Rifapentine] : its pIC50 reads > 6.30

----------
system: Staphylococcus aureus MW2 (mecA+); assay: IC50 (growth, competition assay); conditions: fluorescent label: DsRed; cefoxitin: subinhibitory
Can you tell me IC50 for the items I'm about to list?
Quick note: unit goes after the number.

Some entries whose results are on file:
C=C(CC)C(=O)c1ccc(OCC(=O)O)c(Cl)c1Cl [EDECRIN] ... 34.1 µM
O=C(O)C1=C(CSc2nnnn2CS(=O)(=O)O)CS[C@@H]2[C@H](NC(=O)[C@H](O)c3ccccc3)C(=O)N12 [MONOCID] ... 98.3 µM
CC(C)c1c(O)ccc2c1CC[C@H]1[C@@](C)(CO)CCC[C@]21C [19-HYDROXYTOTAROL] ... 77.4 µM

Now for the molecule whose IC50 we want.
Quick note, IC50 for COc1ccc2c(c[n+](C)c3c4cc5c(cc4ccc23)OCO5)c1OC [Chelerythrine chloride] landed at 36.7 µM

----------
Record form. Attribute: pIC50. Fill in for each entry.
tested on: Staphylococcus aureus MW2 delta-mecA (mecA-); test: IC50 (growth, competition assay); conditions: fluorescent label: DsRed; cefoxitin: subinhibitory
Where a name gives a salt, the structure may show the parent alone.
One number for each entry, as −log10 of the molar value.

Example compounds with recorded pIC50:
O=C(C=Cc1ccc(O)cc1)c1ccccc1O [2',4-DIHYDROXYCHALCONE] ... 4.57
c1ccc2c(CCNc3ccc(Nc4ccncc4)cc3)c[nH]c2c1 ... 4.21
O=C(/C=C/c1ccc(O)cc1)c1ccc(O)cc1O ... 4.56
CC[C@@H]1C(=O)N(C)c2cnc(Nc3ccc(C(=O)NC4CCN(C)CC4)cc3OC)nc2N1C1CCCC1 ... 4.67

Need pIC50 for each of these compounds.
1. CSc1ccc2c(c1)C(N1CCN(C)CC1)Cc1ccccc1S2 (configuration not stated) [Methiothepin mesylate]
2. CN(C)CCC=C1c2ccccc2CCc2ccccc21
3. O=C(O)c1ccc(N2C(=O)/C(=C\c3ccc(-c4ccc([N+](=O)[O-])cc4)o3)C=C2c2ccccc2)cc1
4. COC(=O)c1c(OC)cc2c(c1C)Oc1c(Cl)c(O)c(Cl)c(C)c1C(=O)O2
5. CC(C)c1nc(CN(C)C(=O)N[C@@H](CCN2CCOCC2)C(=O)N[C@H](CC[C@H](Cc2ccccc2)NC(=O)OCc2cncs2)Cc2ccccc2)cs1 [Cobicistat (GS-9350)]
6. COc1cc(C)c(C(=O)Oc2cc(C)c(C(=O)O)c(O)c2C)c(OC)c1C
7. Cc1sc2c(c1C)C(c1ccc(Cl)cc1)=N[C@@H](CC(=O)OC(C)(C)C)c1nnc(C)n1-2 [(+)-JQ1]
8. O=C(Nc1ccc(C(=O)O)c(O)c1)c1ccccc1

4.67
4.48
4.74
4.42
4.53
4.89
4.33
4.75

Required: pIC50, one value per compound below.
1. CCn1cc(C(=O)O)c(=O)c2cc(F)c(N3CCNC(C)C3)c(F)c21 (configuration not stated) [Lomefloxacin hydrochloride (Maxaquin)]
2. C[C@H]1[C@H](C)CC[C@]2(C(=O)O)CC[C@]3(C)C(=CC[C@@H]4[C@@]5(C)C[C@@H](O)[C@H](O)[C@@](C)(CO)[C@@H]5CC[C@]43C)[C@H]12

[6.25, 3.91]
